Data provenance: ChEMBL document CHEMBL4152251

- target.entity: Receptor-histidine kinase AgrC (Staphylococcus aureus)
- experimental.protocol: Inhibition of AIP-stimulated quorum sensing system AgrC activation in Staphylococcus aureus RN10829 harboring P3:blaZ fusion assessed as reduction in beta-lactamse activity at 5 ug/ml preincubated with organism followed by AIP addition measured after 45 mins by nitrocefin hydrolysis assay
Active and inactive are the calls of the source. No cut-off for these calls is given here.
The reply should be one of these categories: 1 (yes) (active), 0 (no) (inactive)

## Task Outcome logged for `CCCCCCC(=O)N[C@@H]1CNC(=O)[C@@H](CC(C)C)NC(=O)[C@@H](CC(C)C)NC(=O)[C@@H](CC(C)C)NC(=O)[C@@H](Cc2ccccc2)NC1=O` in this assay:
## Result 0 (no)
